Entry source: PubChem BioAssay AID1910

Readings of activation for the listed molecules
# Test: HIF pathway transcriptional activators, primary screen, cell-based, U2OS HRE-luciferase, luminescence (AID 1910)
# Condition label: U2OS HRE-luciferase reporter, active compounds read high, screened at 7.5 µM (by protocol), normalized: DMSO 0%, desferrioxamine 100%
Hit rate of the full screen: of about 300,000 compounds, about 950 (0.32%) were called active. This is one part of a sample in which actives are shown more often than they occur.
Kindly answer with a numeric value in %, unit omitted.

Known activation results, listed for orientation:
INSERT INTO results (molecule, reported_result) VALUES
  ('c1ccc(NCc2cccc3ccccc23)nc1', -34.2),
  ('CC1CN(C(=O)COC(=O)c2cccc(NS(=O)(=O)c3ccccc3)c2)CC(C)O1 (stereo not drawn)', -0.538),
  ('Cc1cccc(NC(=S)N2CCCC(c3nc4ccccc4[nH]3)C2)c1 (stereo not drawn)', 0.822);

Which value of activation has been reported for Cc1ccc(NC(=O)COC(=O)CNC(=O)c2ccc(Cl)cc2Cl)cc1S(=O)(=O)N1CCOCC1 in the records? -0.357

Same for CCOc1ccc(N(CC(=O)NCc2ccc(OC)cc2)S(=O)(=O)c2c(C)noc2C)cc1 0.179

Same for Cc1ccccc1C(=O)N1CCC(C(=O)Oc2ccc(C#N)cc2)CC1 -0.988

Same for C/C(=N\NC(=O)Cc1ccccc1[N+](=O)[O-])c1cccnc1 0.0865

Same for CCN(CCO)C(=S)Nc1cc(C(=O)OC)ccc1C(=O)OC -0.0671

Same for CCOC(=O)C1CCN(C(=O)COC(=O)C2CCN(S(=O)(=O)c3ccc4c(c3)OCCO4)CC2)CC1 0.496

Same for CCS(=O)(=O)c1ccc(-c2cccc(NC(=O)c3ccc(Br)o3)c2)nn1 -0.865

Same for CCc1cccc(C)c1NC(=O)COC(=O)CC1CCCC1 -0.451

Same for Cc1ccc(C(C)NC(=O)Cn2nc(C)c([N+](=O)[O-])c2C)cc1 (stereo not drawn) -0.456

Same for CCOc1ccc(CCNC(=O)COC(=O)C2CCN(c3ccc(C(F)(F)F)cn3)CC2)cc1OCC 0.095

Same for C/C(=N\NC(N)=S)c1cccnc1 -0.0419

Same for Oc1ccc(N=Nc2nccs2)c(O)c1 -0.857

Same for Cc1ccc(OCC(=O)NC(C)c2ccccc2)c([N+](=O)[O-])n1 (stereo not drawn) -1.24

Same for Cc1ccc(OCCCCc2c(C)n[nH]c2C)cc1 0.618

Same for COc1ccccc1C(=O)Nc1ccc(NC(=O)c2ccco2)c(C)c1 0.062

Same for CCS(=O)(=O)Nc1cc(C(=O)OC)ccc1C(=O)OC -0.124

Same for COc1ccccc1C1=CC(=O)CCC1 0.17
